- measured.on: LIGHT on the surface of HEK293-LIGHT stable cells (human, UniProt O43557 1-240)
- Sequence (O43557 whole entry): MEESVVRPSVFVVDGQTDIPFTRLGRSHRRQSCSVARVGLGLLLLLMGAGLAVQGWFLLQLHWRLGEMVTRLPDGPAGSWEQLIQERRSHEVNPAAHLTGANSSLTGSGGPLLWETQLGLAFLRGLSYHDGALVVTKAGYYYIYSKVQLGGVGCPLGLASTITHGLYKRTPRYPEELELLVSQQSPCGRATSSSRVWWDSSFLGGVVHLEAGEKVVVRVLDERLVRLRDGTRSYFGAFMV
- assay: cell-based or functional assay
property.name: IC50, LTβR NF-κB luciferase reporter, HEK293-LIGHT cells (nM)
Provide only the numeric value, understood in nM.

{"columns": ["binder", "result.value"],
 "data": [
  ["hum_LT-m85-3 (antibody, human IgG4, V domains shown, humanized from LT-m85) VH: QVQLVQSGAEVKKPGASVKVSCKASGYTFTSYNVHWVRQAPGQGLEWIGAVYPGNGDTSYNQKFKGRATLTADKSTSTVYMELSSLRSEDTAVYYCARGSYYYTSSYFDHWGQGTLVTVSS VL: EIVMTQSPATLSVSPGERATLSCKASQSVDFDGDSYMNWYQQKPGQPPRLLIYTASNLESGIPARFSGSGSGTEFTLTISSLQSEDFAVYYCQQSYEDPFTFGQGTKLEIK", 4.68],
  ["hum_LT-m85-2 (antibody, human IgG4, V domains shown, humanized from LT-m85) VH: QVQLVQSGAEVKKPGASVKVSCKASGYTFTSYNVHWVRQAPGQGLEWMGAVYPGNGDTSYNQKFKGRATLTADKSTSTAYMELSSLRSEDTAVYYCARGSYYYTSSYFDHWGQGTLVTVSS VL: EIVMTQSPATLSVSPGERATLSCKASQSVDFDGDSYMNWYQQKPGQPPRLLIYTASNLESGIPARFSGSGSGTEFTLTISSLQSEDFAVYYCQQSYEDPFTFGQGTKLEIK", 6.02]
]}

Q: Return reported IC50, LTβR NF-κB luciferase reporter, HEK293-LIGHT cells; argument: hum_LT-m85-1 (antibody, human IgG4, V domains shown, humanized from LT-m85) VH: QVQLVQSGAEVKKPGASVKVSCKASGYTFTSYNVHWVRQAPGQGLEWIGAVYPGNGDTSYNQKFKGRATLTADKSTSTVYMELSSLRSEDTAVYYCARGSYYYTSSYFDHWGQGTLVTVSS VL: EIVLTQSPATLSVSPGERATLSCKASQSVDFDGDSYMNWYQQKPGQPPRLLIYTASNLESGIPARFSGSGSGTEFTLTISSLQSEDFAVYYCQQSYEDPFTFGQGTKLEIK
A: 4.24

Q: Can you look up the measured IC50, LTβR NF-κB luciferase reporter, HEK293-LIGHT cells of hum_LT-m85-4 (antibody, human IgG4, V domains shown, humanized from LT-m85) VH: QVQLVQSGAEVKKPGASVKVSCKASGYTFTSYNVHWVRQAPGQGLEWIGAVYPGNGDTSYNQKFKGRATLTADKSTSTAYMELSSLRSEDTAVYYCARGSYYYTSSYFDHWGQGTLVTVSS VL: EIVMTQSPATLSVSPGERATLSCKASQSVDFDGDSYMNWYQQKPGQAPRLLIYTASNLESGIPARFSGSGSGTEFTLTISSLQSEDFAVYYCQQSYEDPFTFGQGTKLEIK for me?
A: 2.56
